The reported measurements were obtained from patent US20180112008A1.

# TARGET OF ASSAY: T1, biotinylated chitobiose-conjugated 18-mer glycopeptide (human, also: biotinylated, site not given here)
# T1 construct: Cys plus T22-V38 of MUC16^c114; The range is derived from T22-V38 and the statement that c114 is 1777-1890; also called (GlcNAc2)2-18-mer, biotinylated; 18-mer(chitobiose)2[C-T22-V38]
# T1 peptide: Ac-CTRN(GlcNAc2)GTQLQN(GlcNAc2)FTLDRSSV-NH2
# TEST DESCRIPTION: BLI (Octet QK), biotinylated glycopeptide on streptavidin sensor, antibody 10 ug/mL, 1:1 model
* marks the point of attachment. GlcNAc2 = N-linked chitobiose, CC(=O)N[C@@H]1[C@@H](O)[C@H](O[C@@H]2O[C@H](CO)[C@@H](O)[C@H](O)[C@H]2NC(C)=O)[C@@H](CO)O[C@H]1*
MEASURED ATTRIBUTE: koff (s⁻¹)
Quick reminder: number only, in s⁻¹, skip the unit.

Task item: Can you share its koff? I mean this binder: 18C6.D12 (antibody, V domains shown, Mouse monoclonal from a hybridoma; also called MUC16 Glycosylation Antibody 18C6) VH: QVTLKESGPGILQPSQTLSLTCSFSGFSLSTVGMGVGWSRQPSGKGLEWLAHIWWDDEDKYYNPALKSRLTISKDTSKNQVFLKIANVDTADTATYYCTRIGTAQATDALDYWGQGTSVTVSS VL: DIVMTQAAPSVPVTPGESVSISCRSSKSLLHSNGNTYLYWFLQRPGQSPQRLIYYMSNLASGVPDRFSGRGSGTDFTLRISRVEAEDVGVYYCMQSLEYPLTFGGGTKLEIK
Reply: 0.000678
